Assay: NCI Yeast Anticancer Drug Screen. Data for the sgs1 mgt1 strain (AID 161);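 note: 0% = growth of cultures given vehicle only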
Settings: S. cerevisiae sgs1 mgt1 strain, stronger effect = higher value; at 50.0 µM unless noted
About 79,000 compounds went through this panel and 15% of them were active in at least one assay; those are over-represented in the sample as a whole.
measured metric: growth inhibition (%)
Please give a number only; it is taken to be in %.

Solved entries:
c1ccc(CNc2nn[nH]n2)cc1; -5.9
OCC[P+](c1ccccc1)(c1ccccc1)c1ccccc1; -6.2
CC1(C)SCc2nc3ccccc3n21; 12.2
COc1ccccc1C(=O)N/N=C/c1cccc([N+](=O)[O-])c1; 13.7
c1cc2c(cc1CSCc1c(CSCc3ccc4c(c3)OCO4)c(CSCc3ccc4c(c3)OCO4)c(CSCc3ccc4c(c3)OCO4)c(CSCc3ccc4c(c3)OCO4)c1CSCc1ccc3c(c1)OCO3)OCO2; -1.4
COc1ccc2ncccc2c1[N+](=O)[O-]; -5.8
CC(O[Si](C)(C)C)C1C=CC(C)n2c(=O)n(-c3ccccc3)c(=O)n21 (configuration not stated); -34.3
COc1ccc(C2=Nc3ccccc3N=C(SC)C2)cc1; 51.1
O=c1c2ccccc2c(=O)n2n1-c1cccc(c1)CSSCc1cccc-2c1; -10.6
CCCCCCCCCCCC(=O)NC(=S)Nc1cccc(O)c1; 74.4

INPUT: Given the entry `C[C@H](CCC1=NCCN1)[C@H]1CC[C@H]2[C@@H]3CC[C@@H]4C[C@H](O)CC[C@]4(C)[C@H]3CC[C@]12C` , report its measured growth inhibition.
OUTPUT: 91.2

INPUT: Subsequent entry: `Fc1ccccc1-c1nn2c(C34CC5CC(CC(C5)C3)C4)nnc2s1`
OUTPUT: -29.6

* * *

Assay: NCI Yeast Anticancer Drug Screen. Data for the mec2-1 strain (AID 157)
Settings: S. cerevisiae mec2-1 strain, stronger effect = higher value; at 50.0 µM unless noted
Compounds without any hit were thinned out: in the full panel of roughly 79,000, 15% have a hit.
measured metric: growth inhibition (%)
Please give a number only; it is taken to be in %.

CCN(CC)CCOC(=O)c1cc2ccccc2s1; 8.85

INPUT: Given the entry `Cn1c(NN)nc2ccccc2c1=O` , report its measured growth inhibition.
OUTPUT: -3.25

INPUT: Subsequent entry: `CN(C)c1ccc(NC(=O)C(c2ccccc2)c2ccccc2)cc1`
OUTPUT: -14.6

* * *

Test: NCI Yeast Anticancer Drug Screen. Data for the bub3 strain (AID 167)
Settings: S. cerevisiae bub3 mutant strain; at 50.0 µM unless noted
Compounds without any hit were thinned out: in the full panel of roughly 79,000, 15% have a hit. The source made the active and inactive calls. Cut-off read from the data, not from the text of the source: active = growth inhibition above about 70%; inactive = the rest.
Valid outcomes are listed here; reply with one: 1 (yes) for active, 0 (no) for inactive

Examples with answers:
Nc1nc(=O)[nH]c(=O)[nH]1; 0 (no)
Cc1c2cc[n+](C)cc2c(C)c2c1oc1ccccc12; 1 (yes)
c1ccc(NN=Nc2ncnc3nc[nH]c23)cc1; 0 (no)
CC(=O)N(C(C)=O)c1c(N)n(C)c(=O)[nH]c1=O; 0 (no)
CCCCCOC(=O)c1ccc(C(C)C)cc1; 0 (no)

INPUT: Field: outcome | Entry: CC1CN(S(=O)(=O)c2ccccc2)CCN1S(=O)(=O)c1ccccc1 (configuration not stated)
OUTPUT: 0 (no)

* * *

Assay: NCI Yeast Anticancer Drug Screen. Data for the cln2 rad14 strain (AID 165);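 note: 0% = growth equal to vehicle treated cultures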
Settings: S. cerevisiae cln2 rad14 strain, stronger effect = higher value; at 50.0 µM unless noted
Experimental: Growth inhibition of yeast strains with defined genetic alterations is measured as a screen for potential anti-cancer activity. Selected strains with alterations in DNA damage repair or cell cycle control were exposed to compounds and growth inhibition was measured relative to vehicle treated controls. The strain used in this assay is cln2 rad14
About 79,000 compounds went through this panel and 15% of them were active in at least one assay; those are over-represented in the sample as a whole.
measured metric: growth inhibition (%)
Please give a number only; it is taken to be in %.

O=c1ccc2ccc3[nH]onc3c2c1; -48.8
COC(=O)C(=O)C1(c2ccccc2)C(=O)C(c2ccccc2)=CC1O (stereo unspecified); 0.7
CCNC(=O)c1ccccc1S(C)=O (stereo unspecified); -8.25

INPUT: Given the entry `CCOC(=O)COc1ccc(OC)c2c1C(=O)CCC2` , report its measured growth inhibition.
OUTPUT: 29.2

INPUT: Subsequent entry: `Cc1cccc(OC(=O)NC2CCCCC2)c1`
OUTPUT: -72.3

INPUT: Subsequent entry: `CC(C)c1cccc(C(C)C)c1NC(=O)C(=O)Cc1nc2ccc([N+](=O)[O-])cc2[nH]c1=O`
OUTPUT: 25.3
